method.description: growth inhibition of non-replicating M. tuberculosis (AID 488890);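 note: plate controls were DMSO cells for no effect and high antibiotic wells for full effect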
particulars: Mycobacterium tuberculosis non-replicating, at 25 µM, stronger effect = higher value
Among all 320,000 compounds or so, about 1,300 (0.41%) were called active. Another 3% or so got no clear call; they are omitted. The list is a sample of the results. Measured potencies and affinities stand elsewhere.
measurement.kind: inhibition (%)
Number only, in %; omit the unit.

Examples from the recorded data:
Cc1ccc(Cc2cnc(NC(=O)c3ccco3)s2)cc1	79
COCc1cc(=O)[nH]c(SCC(=O)c2ccccc2)n1	-7.52
CC(=O)Nc1ncc(Cc2cccc(Cl)c2)s1	36.5
CCC(=O)NNC(=O)c1cc(COc2cc(Cl)cc(Cl)c2)on1	40
Cc1cc(C(=O)N2CCCC(N3CCN(c4ccccc4C)CC3)C2)n(C)n1 (stereo unspecified)	8.85

Sample `COc1ccc(-c2ccc(OC)cc2)cc1` — what was its inhibition? 10.9

Sample `N#Cc1c[nH]n2c(=O)c3c(nc12)CCC3` — what was its inhibition? -2.17

Sample CC1CCCN(C(=O)C2COc3ccccc3O2)C1 (stereo unspecified) — what was its inhibition? 57.7

Sample `COc1cc(C(=O)ON=C2C3CC4CC(C3)CC2C4)cc(OC)c1OC` — what was its inhibition? 46.9

Sample O=C(Nc1ccncc1)C1COc2ccccc2O1 (stereo unspecified) — what was its inhibition? 29.1

Sample Cc1cccc(NC(=O)C2COc3ccccc3O2)n1 (stereo unspecified) — what was its inhibition? 75.7

Sample `Cc1onc(-c2ccccc2)c1-c1csc(COc2ccccc2)n1` — what was its inhibition? 33.1

Sample `CN(C)S(=O)(=O)n1ccnc1` — what was its inhibition? -7.18

Sample `O=C(O)C1CCN(C(=O)CCN2C(=O)S/C(=C\c3ccccc3)C2=O)CC1` — what was its inhibition? 1.98

Sample `CCOC(=O)c1csc(N)n1` — what was its inhibition? -4.96

Sample `O=[N+]([O-])c1ccc2ncnc(Nc3ccc4c(c3)OCCO4)c2c1` — what was its inhibition? 21.4

Sample `Cc1[nH]n2c(=O)c3c(nc2c1-c1cccc2ccccc12)CCC3` — what was its inhibition? 61.6

Sample `Cc1ccc(C(=O)Nc2ncc(Cc3ccc(F)cc3)s2)o1` — what was its inhibition? 13.4

Sample `O=C(O)Cc1ccc(NC(=O)Nc2ccc3c(c2)OCO3)cc1` — what was its inhibition? -6.44

Sample O=C(C1COc2ccccc2O1)N1CCCC1 (stereo unspecified) — what was its inhibition? 70.2

Sample `O=c1c2c(nc3c(-c4cccc(Br)c4)c[nH]n13)CCCC2` — what was its inhibition? 76.9

Sample `O=C(CSc1nnc2ccccn12)N1CCc2ccccc2C1` — what was its inhibition? -9.62

Sample `Cc1onc(-c2c(Cl)cccc2Cl)c1COC(=O)c1ccc(Cl)cc1` — what was its inhibition? 16.1

Sample `Cc1ccc(C(=O)Nc2ncc(Cc3ccccc3)s2)o1` — what was its inhibition? 32.2

Sample `CC(C)C(=O)Nc1ncc(Cc2ccc(Cl)cc2)s1` — what was its inhibition? 32.4

Sample `CCOC(=O)c1csc(NC(C)=O)n1` — what was its inhibition? -1.23
